Tested on: BT-549 breast
Experiment: NCI-60 one-dose screen, 48 h (100 = growth as untreated, 0 = no growth, -100 = all killed)
Settings: 10 µM unless noted
This is part of a sample that, as a whole, favours compounds with a hit. Of some 83,000 tested, about 20% had one in any assay.
Catalogue of growth readings, one per entry.

{"columns": ["molecule", "growth (%)"],
 "data": [
  ["CCCCCCCCCCCCCC", 112],
  ["O=C1CCCN1C(O)CCN(Cc1ccccc1)Cc1ccc(Cl)cc1 (configuration not stated)", 105],
  ["O=C1N(Cc2ccccc2Cl)c2ccccc2C12NN=C(c1ccccc1)S2 (configuration not stated)", 70],
  ["O=C(NO)c1ccc(CNc2cccc3nc(C4CC4)n(-c4ccccc4)c(=O)c23)cc1", 64],
  ["O=C(/C=C/c1ccco1)c1ccccc1O", 95.6],
  ["Cc1nn(-c2ccccc2)c2nc3c(nc12)C1=NCCN1C(c1ccc(Cl)cc1)N3 (configuration not stated)", 98.3],
  ["COc1ccc(/C=N/NC(N)=S)c(OC)n1", 102],
  ["Cc1c(C(=O)CCl)c(=O)n(-c2ccccc2)n1C", 61.2],
  ["CC1CCCN(CCCCOc2ccc(-c3ccc(C#N)cc3)cc2)C1 (configuration not stated)", 85.6],
  ["COc1ccc(-c2nn(C(=O)NCCN(C)C)cc2-c2ccncc2)cc1Cl", 58.6],
  ["CCC(=O)NC1=C(Cl)C(=O)C(NC(=O)CC)=C(Cl)C1=O", 119],
  ["Cc1ccccc1NC(=O)c1sc2nc3c(cc2c1N)C(=O)CCC3", 55.6]
]}

---

System: NCI/ADR-RES ovarian
Assay: NCI-60 one-dose screen, 48 h
Conditions: 10 µM unless noted
This is part of a sample that, as a whole, favours compounds with a hit. Of some 83,000 tested, about 20% had one in any assay. Calls of active or inactive are those of the source. The calls were made as follows: active = growth percent below 10; inactive = the rest.
Outcomes: active, inactive

{"columns": ["compound", "class.label"],
 "data": [
  ["COc1cc(OC)c(Cl)cc1N", "inactive"],
  ["Cc1cc(-c2ccccc2)on1", "inactive"],
  ["Cc1ccc(C)c2c1SC1=NNC(Oc3ccc(Cl)cc3)=C(C#N)C(=N)N12", "inactive"],
  ["c1ccc2c(N=NSc3ncnc4nc[nH]c34)c3ccccc3nc2c1", "active"],
  ["CC(C)[C@@]12C[C@@H](OC(=O)[C@H]3CO3)[C@@](C)(O1)[C@@H]1CC[C@@H](C)[C@H]1[C@@H]2OC(=O)/C=C/c1ccccc1", "inactive"],
  ["CC(C)(C)OC(=O)N1CCCN(CCNc2nccc(-c3c(-c4cccc(O)c4)nc4sccn34)n2)S1(=O)=O", "inactive"],
  ["CCN(CC)CCCC(C)Nc1c(-c2ccccc2)cnc2cc(Cl)ccc12 (centres undefined)", "inactive"],
  ["CN1C(=O)N(C)C2C1NN=c1s/c(=C\\c3ccc(C(F)(F)F)cc3)c(=O)n12 (centres undefined)", "inactive"],
  ["O=C1/C(=C/c2cc(F)cc(F)c2)Cc2cc(F)cc(F)c21", "inactive"],
  ["C=C1C(=O)O[C@H]2[C@H]1CC/C(COC(=O)NCc1ccc(Cn3c(=O)sn(CCCl)c3=O)cc1)=C\\CC[C@@]1(C)O[C@@H]21", "inactive"],
  ["COc1cc2ncnc(Nc3ccc(S(=O)(=O)Nc4nccs4)cc3)c2cc1OCCCN1CCOCC1", "inactive"],
  ["CC(C)(C)[Si](C)(C)OC1[C@@H](O[Si](C)(C)C(C)(C)C)[C@@H](CNC(=O)NC(=O)NC(=O)CCl)O[C@H]1n1cnc2c(NC(=O)Nc3ccccc3)ncnc21 (some centres undefined)", "inactive"],
  ["COc1cnc2c(c1)C(=O)c1c-2n(CCCN2CCN(C)CC2)c(=O)c2cc(Cl)ccc12", "inactive"],
  ["CCN(CC)c1ccc(/C=N/NC(=O)c2ccc(S(C)(=O)=O)cc2)c(O)c1", "inactive"],
  ["CC(C)c1cccc(C#N)c1", "inactive"],
  ["COc1cc(-c2nc(-c3ccc(-c4nc5ccc(F)cc5[nH]4)cc3)no2)cc(OC)c1OC", "inactive"],
  ["CC1OC(n2c3ccccc3c3c4c(c5c6ccccc6[nH]c5c32)C(=O)N(CCN2CCOCC2)C4=O)CC(O)C1O (centres undefined)", "inactive"],
  ["COc1cc(/C=C/c2cc(/C=C/c3ccc(O)c(OC)c3)n(C(=O)Nc3ccc(F)c(Cl)c3)n2)ccc1O", "inactive"],
  ["O=C(O)CSc1ccc(NCc2oc(CO)cc(=O)c2O)cc1", "inactive"]
]}
